Test: NCI Yeast Anticancer Drug Screen. Data for the cln2 rad14 strain (AID 165);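 also: 0% = growth equal to vehicle treated cultures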
Settings: S. cerevisiae cln2 rad14 strain, active compounds read high; at 50.0 µM unless noted
About 79,000 compounds went through this panel and 15% of them were active in at least one assay; those are over-represented in the sample as a whole.
quantity_measured: growth inhibition (%)
Number in %, nothing else.

Known growth inhibition results, listed for orientation:
molecule	growth inhibition / %
O=C1/C(=C/c2cccnc2)SC(=S)N1Cc1ccco1	40
C=CC[N+]1(CCOC(=O)C(c2ccccc2)C2C=CCC2)CCCC1 (configuration not stated)	-13.8
CC1(C)CC(=O)C(/C=N/C(=S)Nc2ccc(S(N)(=O)=O)cc2)=C(O)C1	-8.55

Entry CCC1CC(C)=CCN1S(=O)(=O)c1ccc(C)cc1 (configuration not stated) , growth inhibition reported as 18.6

Entry Nc1ncnc2c1ncn2C1OC(CO)C(NC(=O)C(N)Cc2ccccc2)C1O (configuration not stated) , growth inhibition reported as -32.3

Entry Cc1ccc2c(c1)C(C)(C)C(C)(C)C2(C)C , growth inhibition reported as 0.4

Entry CC(C)CCN , growth inhibition reported as 19.1
